Source listed as the DeepSol protein solubility set.

assayMethodText: soluble on expression in E. coli; label from the status in PepcDB or PDB records
measure: soluble on expression in E. coli

INSERT INTO results (constructsequence, measure, result) VALUES
  ('MAHHHHHHMANSRASTLAAAAAAASTAAVKPLSYVSLRSHDGKHVILPVAAAAGSRVLHGIFQGLYVMRLHQCNSPADQPPHAQHEQYPMVEEDAQQGELHIPRSGSSSSSGSDVANKAHGSAEVKVDDPIPIIEDEDDIEEDEARHQVNGAAYRSYAAVFPSNVACVPPPPSPLLSTSPPAAPSPCVPPLLEVPICSLEFSTLMRVAEFLVVKITLASHPHYLHEANVFGDLDRTSERDQLVAMQVLLGADFLNC', 'soluble on expression in E. coli', 'not soluble'),
  ('MHITLRQLEVFAEVLKSGSTTQASVMLALSQSAVSAALTDLEGQLGVQLFDRVGKRLVVNEHGRLLYPRALALLEQAVEIEQLFREDNGAIRIYASSTIGNYILPAVIARYRHDYPQLPIELSVGNSQDVMQAVLDFRVDIGFIEGPCHSTEIISEPWLEDELVVFAAPTSPLARGPVTLEQLAAAPWILRERGSGTRDIVDYLLLSHLPKFEMAMELGNSEAIKHAVRHGLGISCLSRRVIEDQLQAGTLSEVAVPLPRLMRTLWRIHHRQKHLSNALRRFLDYCDPANVPR', 'soluble on expression in E. coli', 'not soluble');
